- Test system: MDA-MB-435
- experiment_description: NCI tumour cell line growth inhibition, 48 h
Activity calls are given as the source filed them. Rule as the data show it: active = GI50 up to about 1.1 µM and inactive = higher.
measure_name: GI50

>  <compound>
CC(C)=NN/C(=N\c1ccc(Cl)cc1)NS(=O)(=O)c1ccc(Oc2cccc(Cl)c2C#N)cc1

>  <assay_result>
> 100 µM (inactive)

$$$$
>  <compound>
Nc1ccc2c3[nH]c4cc(N)ccc4cc-3nc2c1

>  <assay_result>
0.136 µM (active)

$$$$
>  <compound>
S=C(Nc1ccccn1)Nc1ccccc1Cl

>  <assay_result>
69.5 µM (inactive)

$$$$

Note to self: GI50 recorded for c1csc(-c2cc(-c3ccsc3)cs2)c1 was > 100 µM (inactive)

GET /value?item= C=C1C(=O)CC2C(=O)C(C)(O)CC/C=C(\C)C(=O)CC12 (centres undefined) &field=GI50 returns 24.6 µM (inactive)

Given item CCC(=O)Nc1cccc(/N=C/c2ccc(OC(=O)/C=C\c3ccccc3)cc2)c1 , the value recorded as its GI50 is > 75 µM (inactive)

The reported value for Brc1ccc2[nH]cc(-c3csc(-c4c[nH]c5ccc(Br)cc45)n3)c2c1 in terms of GI50 is 1.93 µM (inactive)

---

- System: COLO 205
- experiment_description: NCI tumour cell line growth inhibition, 48 h
Active and inactive are the calls of the source. Cut-off read from the data, not from the text of the source: active = GI50 up to about 1.1 µM and inactive = higher.
measure_name: GI50

>  <compound>
Nc1ccn(C2OC(COP(=O)(O)Oc3ccccc3)C(O)C2O)c(=O)n1 (stereo not given)

>  <system_name>
COLO 205

>  <assay_result>
61.9 µM (inactive)

$$$$
>  <compound>
CN(C)CCNc1ccc(NCC[N+](C)(C)Cc2ccc([N+](=O)[O-])cc2)c2c1C(=O)c1ccccc1C2=O

>  <system_name>
COLO 205

>  <assay_result>
7.28 µM (inactive)

$$$$
>  <compound>
CCSC1=N/C(=C\c2ccco2)C(=O)N1

>  <system_name>
COLO 205

>  <assay_result>
> 100 µM (inactive)

$$$$
>  <compound>
CN(C)CCCn1c2ccccc2c2cnccc21

>  <system_name>
COLO 205

>  <assay_result>
14.6 µM (inactive)

$$$$
>  <compound>
CC1CC(C#N)=C2NCCCCN2C1=O (stereo not given)

>  <system_name>
COLO 205

>  <assay_result>
> 100 µM (inactive)

$$$$

--- query ---
Entry O=C1c2[nH]c3ccc(Br)cc3c2CCN1Cc1ccc(Cl)cc1 , GI50 reported as 17.7 µM (inactive)

---

- Test system: SF-268
- experiment_description: NCI tumour cell line growth inhibition, 48 h
The source made the active and inactive calls. Cut-off read from the data, not from the text of the source: active = GI50 up to about 1.1 µM and inactive = higher.
measure_name: GI50

Consider the reported GI50 for these molecules:
>  <smi>
COc1cc(C/N=c2/nc(N(C)C)ss2)cc(OC)c1OC

>  <assay_result>
> 10 µM (inactive)

$$$$
>  <smi>
CSc1ccc(C=C2N=C(c3ccccc3)N(c3cc(C(=O)c4ccccc4)ccc3N3C(=O)/C(=C/c4ccc(SC)cc4)N=C3c3ccccc3)C2=O)cc1

>  <assay_result>
53.2 µM (inactive)

$$$$
>  <smi>
COc1ccc(C2=Nn3c(nc4sc5c(c4c3=O)CCCC5)SC2)cc1

>  <assay_result>
> 100 µM (inactive)

$$$$
>  <smi>
c1cc(-c2cn[nH]c2)cc(-c2cn[nH]c2)c1

>  <assay_result>
25.8 µM (inactive)

$$$$

// switching to the query molecule
The reported GI50 value, SF-268, for O=c1c2cc3ccccc3n2c(=O)c2cc3ccccc3n12 reads > 100 µM (inactive)

---

Recorded GI50 by entry
- Tested on: LOX IMVI
- experiment_description: NCI tumour cell line growth inhibition, 48 h
The source made the active and inactive calls. Rule as the data show it: active = GI50 up to about 1.1 µM and inactive = higher.

Guide cases for GI50, answers given:
>  <molecule>
CC1=C(C(=O)CC(=O)C(=O)Nc2ccccc2C)Sc2ccccc2N1

>  <GI50>
> 42.4 µM (inactive)

$$$$
>  <molecule>
CC1CC2C(=O)N(c3ccccc3)C(=O)C2c2c1c1ccccc1n2Cc1ccccc1 (stereo unspecified)

>  <GI50>
> 100 µM (inactive)

$$$$
>  <molecule>
CSc1ncnc2c1ncn2CC(=O)C1CCC2C3CCC4=CC(=O)CCC4(C)C3CCC12C (stereo unspecified)

>  <GI50>
4.38 µM (inactive)

$$$$
>  <molecule>
O=[N+]([O-])c1ccc(N2C[N+](c3ccccc3)=NC(c3ccccc3)=N2)cc1

>  <GI50>
26.1 µM (inactive)

$$$$

Consider now this further molecule.
// GI50 (LOX IMVI) for CN(CC(=O)O)c1ncc2c(n1)-c1ccccc1CC2 = > 100 µM (inactive)

---

- Test system: LXFL 529
- experiment_description: NCI tumour cell line growth inhibition, 48 h
Activity calls are given as the source filed them. No stated cut-off is given here; in the data, active = GI50 up to about 1.1 µM and inactive = higher.
Choose the fitting class; nothing outside T (active), F (inactive) is accepted.

>  <compound>
c1ccc2c3c([nH]c2c1)C1(CCCCC1)c1c([nH]c2ccccc12)C31CCCCC1

>  <system_name>
LXFL 529

>  <qualitative_label>
F

$$$$

// param item: Cc1cc([N+](=O)[O-])ccc1Sc1c2ccccc2nc2cc(Cl)ccc12 ; yields the recorded call
F

So what was the verdict on O=C[C@]12CC=C3OC4OC5(CCCCC5)OC4[C@H]3[C@H]1C(=O)C=CC2=O (stereo not given in full) in this test?
F

Please let me know the test result on file for CC1CC2C(=O)N(c3ccccc3)C(=O)C2c2c1c1ccccc1n2Cc1ccccc1 (stereo not given) .
F

Assay outcome for CCOC(=O)/C(=C/c1ccc(Cl)cc1)N(CC)CC : what was it?
F

Hi, do you know how N#CCCN(CCC#N)c1ccc(/C=N\c2ccc(F)cc2)cc1 came out in this test?
T

Identify the outcome logged in this assay for the compound shown: FC(F)(F)c1nc(-c2ccccc2Cl)[nH]c1C(F)(F)F
T

Could you please tell me the result logged for COc1ccc2nc3ccccc3c(NCCN(C)CCCl)c2c1 in this assay?
T

Please indicate how the test categorized O=c1c2cc(Cl)ccc2n2nnc3ccc(NCCNCCO)c1c32 .
T

Could you please tell me the result logged for C=C1COC(O)(C2OCOC(C3CC(=O)NC(=O)C3)C2O)C1C (stereo not given) in this assay?
T

---

- System: HT-29
- experiment_description: NCI tumour cell line growth inhibition, 48 h
Activity calls are given as the source filed them. Rule as the data show it: active = GI50 up to about 1.1 µM and inactive = higher.
Can you answer with just one of these options? active, inactive

>  <compound>
CC(=O)CCC(=O)C(=[N+]=[N-])S(=O)(=O)c1ccccc1

>  <qualitative_label>
inactive

$$$$
>  <compound>
COC(c1ccc(C(C)(C)C)cc1)(c1ccc(C(C)(C)C)cc1)c1ccc(C(C)(C)C)cc1

>  <qualitative_label>
inactive

$$$$
>  <compound>
COc1cc(/C=C/c2ccc(OC)c(O)c2)cc(OC)c1

>  <qualitative_label>
inactive

$$$$
>  <compound>
CCN(CC)C(=S)SS(=O)(=O)c1ccc(Cl)cc1

>  <qualitative_label>
inactive

$$$$

Dear colleague, could you share the recorded outcome for CC1(C)C(=O)C(=Cc2ccco2)C1=O when you have a moment?
inactive

Given COC(=O)[C@]1(C)[C@H]2C[C@H]3O[C@H]4[C@H](O)[C@@H](O)OC(CC(O)C(C5=CC(=O)OC5)C(C5=CC(=O)OC5)C(O)CC56CCCCC7[C@@H](C)[C@H](C[C@H]8[C@](C)(C(=O)OC)[C@H](O)CC[C@]78C)O[C@H]([C@@H](O)[C@H](O)O5)[C@H]6O)(CCCCC([C@@H]3C)[C@]2(C)CC[C@@H]1O)[C@H]4O (stereo partly drawn) , state the outcome it received in this test.
active

Field: outcome | Entry: O=c1[nH]c(=S)[nH]c2c(C3OC(CO)C(O)C3O)nsc12 (stereo not drawn)
inactive

Which outcome did this test record for the compound CCOC(=O)c1cc2c3c(c(C(C)=O)c(OC)c2[nH]1)N(C(=O)CC)CC3 ?
inactive

Each compound tested received a call. Report the one for CCOC(=O)/C(=C/c1ccc(Cl)cc1)N(CC)CC .
inactive

Hi team, can someone confirm the assay call for COC1CCC(OC2CC(C3(C)CCC4(CC(O)C(C)C(C(C)/C=C(\C)C(=O)C(C)CC(C)C(=O)O)O4)O3)OC3(OC(C4OC(O)(CO)C(C)CC4C)CC3C)C2C)OC1C (stereo not drawn) ?
active

In this assay, the call recorded for N#Cc1c(O)c(/C=N/c2ncccn2)c(=O)n2c1[nH]c1ccccc12 was what?
inactive

Hey, what did the test say about COc1ccc(OC(=O)N2C/C(=C\c3ccccc3)C(=O)/C(=C/c3ccccc3)C2)cc1 ?
inactive

Look up the recorded call for O=P(c1ccccc1)(c1ccccc1)C1CC=C2CCCCCC2C1 (stereo not drawn) in this test.
inactive

Query: recorded result category for CCC(=O)Nc1nc2c(ncn2C2OC(COC(=O)CC)C(OC(=O)CC)C2OC(=O)CC)c(=O)[nH]1 (stereo not drawn) in this test
inactive

Can you look up the reported call for COc1ccc(N2C(=O)C(=O)N(C)C2=O)c2ccccc12 for me?
inactive

Per the assay record, what outcome was assigned to CCCCCCN(CCCCCC)CCC(=O)c1ccc2cc(Br)c3ccccc3c2c1 ?
inactive

Outcome? Cc1nn2c(nc1=O)sc1ccc3ccccc3c12
inactive

Please indicate how the test categorized CCCN1CCC(=O)N(CCC(F)(F)C(F)(F)C(F)(F)C(F)(F)C(F)(F)C(F)(F)F)C1=S .
inactive

Where these numbers come from: ChEMBL document CHEMBL1201862
